target: UniProt P31749
experimental protocol: Live cell AKT1 WT target engagement by NanoBRET competitive probe displacement
details: HEK293 cells transfected with kinase-NanoLuciferase fusion, 2 h at 37° C.
pIC50: −log10 of the molar value.
observed property: pIC50

# compound, pIC50
rows = [
    ("C=CC(=O)N1CCC(N[C@H]2CCc3cc(-n4c(-c5cccc(F)c5)nc5ccc(-n6cccn6)nc54)ccc32)CC1", 5.60),
]

I. C=CC(=O)N1CC2CC[C@H]1CC2N[C@H]1CCc2cc(-n3c(-c4cccnc4N)nc4ccc(-n5cccn5)nc43)ccc21 (single isomer, unassigned) [Example 134]
II. C=CC(=O)N1CCC(NC2c3ccc(-n4c(-c5cccnc5N)nc5ccc(-n6ccc(C7CC7)n6)nc54)cc3CC2F)CC1C(F)F (single isomer, unassigned) [Example 336]
For the pair I and II , which member has the lower pIC50 number? # respond with the chosen item's label II
(II: 6.28, I: 7.14)

a. C=CC(=O)N1CCC(N[C@H]2CCc3cc(-n4c(-c5cccnc5N)nc5ccc(-n6cccn6)nc54)ccc32)C[C@@H]1COC (single isomer, unassigned) [Example 164]
b. C=CC(=O)N1CCC(N[C@H]2CCc3cc(-n4c(-c5cccs5)nc5ccc(-n6cccn6)nc54)ccc32)CC1
c. C=CC(=O)N1CCC(N[C@H]2CCc3cc(-n4c(-c5cccnc5)nc5ccc(-n6cccn6)nc54)ccc32)CC1
d. C=CC(=O)N1CCOCC(N[C@H]2CCc3cc(-n4c(-c5cccnc5N)nc5ccc(-n6cccn6)nc54)ccc32)C1 (single isomer, unassigned) [Example 53]
e. C=CC(=O)N1CCN(N(C)C2CCc3cc(-n4c(-c5cccnc5N)nc5ccc(-n6cccn6)nc54)ccc32)CC1 (single isomer, unassigned) [Example 180]
Sort low-to-high on pIC50, please. Order the labels as requested and give them as your answer. b, d, e, a, c

a. C=CC(=O)Nc1cccc(C(=O)N[C@H]2CCc3cc(-n4c(-c5cccnc5N)nc5ccc(-n6cccn6)nc54)ccc32)c1
b. C=CC(=O)NC1CC(N[C@H]2CCc3cc(-n4c(-c5cccnc5N)nc5ccc(-n6cccn6)nc54)ccc32)C1 (single isomer, unassigned) [Example 90]
Would you let me know which has the greater pIC50 value, a or b ? Give the label of your selection. a
(a: 7.73, b: 7.39)

1. C=CC(=O)N1CCC(N[C@H]2CCc3cc(-n4c(-c5cccnc5N)nc5ccc(-n6ccc(F)n6)nc54)ccc32)CC1
2. C=CC(=O)N1CCC(N[C@@H]2c3ccc(-n4c(-c5cccnc5N)nc5ccc(-n6cccn6)nc54)cc3CC2C)CC1 (single isomer, unassigned)
3. C=CC(=O)N1CC2(CCCC(N[C@H]3CCc4cc(-n5c(-c6cccnc6N)nc6ccc(-n7cccn7)nc65)ccc43)C2)C1 (single isomer, unassigned) [Example 78]
Could you please sort these 3 entries by pIC50 from high to low? Give the labels in the order requested. 3, 1, 2

P. C=C(F)C(=O)N1CC2(CC(N[C@H]3CCc4cc(-n5c(-c6cccnc6N)nc6ccc(-n7cccn7)nc65)ccc43)C2)C1
Q. C=CC(=O)N1CCC(NC2c3ccc(-n4c(-c5cccnc5N)nc5ccc(-n6ccc(C7CC7)n6)nc54)cc3CC2F)CC1C(F)F (single isomer, unassigned) [Example 333]
Between P and Q , whose recorded pIC50 is greater? Kindly give the label for the entry you pick. Q

* * *

target: AKT2 (Homo sapiens, UniProt P31751)
Construct: expressed in transfected cells; host or cells: HEK293
Sequence (P31751 whole entry): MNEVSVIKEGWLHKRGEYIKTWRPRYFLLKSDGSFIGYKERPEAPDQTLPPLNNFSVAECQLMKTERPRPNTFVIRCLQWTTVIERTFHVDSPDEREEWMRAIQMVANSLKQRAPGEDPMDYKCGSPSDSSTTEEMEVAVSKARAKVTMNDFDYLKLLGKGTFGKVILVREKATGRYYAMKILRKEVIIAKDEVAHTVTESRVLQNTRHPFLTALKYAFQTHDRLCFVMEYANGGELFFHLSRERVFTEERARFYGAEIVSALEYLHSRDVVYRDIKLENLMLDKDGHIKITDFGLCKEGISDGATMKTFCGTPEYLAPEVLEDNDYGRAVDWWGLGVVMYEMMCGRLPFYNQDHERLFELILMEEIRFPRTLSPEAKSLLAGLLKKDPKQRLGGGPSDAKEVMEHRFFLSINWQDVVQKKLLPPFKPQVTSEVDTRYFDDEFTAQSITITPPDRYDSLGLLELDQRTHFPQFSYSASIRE
experimental protocol: Live cell AKT2 target engagement by NanoBRET competitive probe displacement
Format: cell-based
details: HEK293 cells transfected with kinase-NanoLuciferase fusion, 2 h at 37° C.
Procedure: Determining Live Cell AKT1 E17K, AKT1 WT, and AKT2 Target Engagement by NanoBRET Competitive Probe Displacement. Live cell target engagement assays were performed as described (Vasta, J. D. et al. Cell Chem Biol 2018, 25(11), 206-214). […] After incubation for 2 h at 37° C., luciferase substrate and extracellular luciferase inhibitor were added to all wells, and luminescent intensity at 460 nm and 600 nm were measured on a multimode plate-reader. […]
observed property: IC50 (nM)

A. C=CC(=O)N1CCC(N[C@H]2CCc3cc(-n4c(-c5cccnc5N)nc5ccc(-n6cccn6)nc54)ccc3C2)CC1
B. C=CC(=O)N1CC2COC(C1)C2N[C@H]1CCc2cc(-n3c(-c4cccnc4N)nc4ccc(-n5cccn5)nc43)ccc21 (some centres unmarked)
Of the pair A and B , name the member with the lesser recorded IC50. API: response body contains the label of the selected item. A

P. CC#CC(=O)NCc1ccccc1C(=O)N[C@H]1CCc2cc(-n3c(-c4cccnc4N)nc4ccc(-n5cccn5)nc43)ccc21
Q. C=CC(=O)N1CCC(NC2c3ccc(-n4c(-c5cccnc5N)nc5ccc(-n6ccc(C7CC7)n6)nc54)cc3CC2F)CC1C(F)F (single isomer, unassigned) [Example 335]
R. C=CC(=O)N1CCC(N[C@H]2CCc3cc(-n4c(-c5cccnc5N)nc5ccc(-c6nccs6)nc54)ccc32)CC1
Put these in order: smallest IC50 first, largest last. List the labels, following the order given in the request. Q, P, R
(Q: 28.3 nM, P: 53.6 nM, R: 146 nM)

1. C=CC(=O)N1CCC(N[C@H]2CCc3cc(-n4c(-c5cccnc5N)nc5ccc(C6CC6)nc54)ccc32)C(C)C1 (single isomer, unassigned) [Example 232]
2. C=CC(=O)N1CCC(N[C@H]2CCc3cc(-n4c(-c5cccnc5N)nc5ccc(-c6ccccn6)nc54)ccc32)CC1
Lab log: flag the item ( 1 or 2 ) with the smaller IC50 figure. Reply with the label of the item you choose. 2
(2: 35.2 nM, 1: 168 nM)

* * *

target: AKT1 E17K (Homo sapiens, UniProt P31749, E17K)
Sequence (P31749 whole entry E17K): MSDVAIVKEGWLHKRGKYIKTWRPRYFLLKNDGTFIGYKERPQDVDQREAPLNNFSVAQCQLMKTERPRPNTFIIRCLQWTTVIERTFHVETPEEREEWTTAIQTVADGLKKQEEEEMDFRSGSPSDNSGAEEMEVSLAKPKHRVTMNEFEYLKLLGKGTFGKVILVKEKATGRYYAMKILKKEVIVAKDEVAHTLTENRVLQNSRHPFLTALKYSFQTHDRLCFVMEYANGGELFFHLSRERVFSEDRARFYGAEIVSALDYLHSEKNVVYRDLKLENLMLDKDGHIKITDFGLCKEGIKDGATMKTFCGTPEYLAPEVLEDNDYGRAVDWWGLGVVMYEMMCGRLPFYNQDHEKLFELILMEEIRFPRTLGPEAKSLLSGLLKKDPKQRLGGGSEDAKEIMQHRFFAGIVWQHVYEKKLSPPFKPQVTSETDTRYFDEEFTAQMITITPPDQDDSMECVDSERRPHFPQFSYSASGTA
experimental protocol: Live cell AKT1 E17K target engagement by NanoBRET competitive probe displacement
details: HEK293 cells transfected with kinase-NanoLuciferase fusion, 2 h at 37° C.
pIC50: −log10 of the molar value.
observed property: pIC50

Please review the entries below; each comes with its answer.
# compound, pIC50
records = [
    ("CN(C)C/C=C/C(=O)N1CCC(N[C@H]2CCc3cc(-n4c(-c5cccnc5N)nc5ccc(-n6cccn6)nc54)ccc32)CC1", 6.71),
    ("C=CC(=O)N1CCC(N[C@H]2CCc3cc(-n4c(-c5cccnc5N)nc5ccc(-c6cnccn6)nc54)ccc32)CC1", 6.73),
    ("C=CC(=O)N1CCC(N[C@H]2CCc3cc(-n4c(-c5cccnc5N)nc5ccc(N6CCC(F)CC6)nc54)ccc32)CC1", 7.43),
    ("Nc1ncccc1-c1nc2ccc(-n3cccn3)nc2n1-c1ccc2c(c1)CC[C@@H]2NC1CCN(C(=O)[C@H]2CO2)CC1", 6.95),
    ("C=CC(=O)NC1CC(N[C@H]2CCc3cc(-n4c(-c5cccnc5N)nc5ccc(-n6cccn6)nc54)ccc32)C1 (single isomer, unassigned) [Example 90]", 6.81),
]

A. C=CC(=O)N1CCC(N[C@H]2CCc3cc(-n4c(-c5ccccc5)nc5ccc(-n6ccc(F)n6)nc54)ccc32)CC1
B. C=CC(=O)N1CCC(N[C@H]2CCc3cc(-n4c(-c5cccnc5N)nc5ccc(-n6ccc(C7CCC7)n6)nc54)ccc32)CC1
Thinking about recorded pIC50 values, which is higher, A or B ? Answer format: the label of the selected item. B
(B: 8.04, A: 7.82)

* * *

target: AKT1 E17K (Homo sapiens, UniProt P31749, E17K)
experimental protocol: Live cell AKT1 E17K target engagement by NanoBRET competitive probe displacement
details: HEK293 cells transfected with kinase-NanoLuciferase fusion, 2 h at 37° C.
pIC50: −log10 of the molar value.
observed property: pIC50

P. C=CC(=O)N1CCC(N[C@@H]2c3ccc(-n4c(-c5cccnc5N)nc5ccc(-n6ccc(F)n6)nc54)cc3CC2F)CC1 (single isomer, unassigned) [Example 236]
Q. C=CC(=O)N1CCC(N[C@H]2CCc3cc(-n4c(-c5ccccc5C#N)nc5ccc(-n6cccn6)nc54)ccc32)CC1
R. C=CC(=O)N1CCC(N[C@@H]2c3ccc(-n4c(-c5cccnc5N)nc5ccc(-n6cccn6)nc54)cc3CC2F)C(C)C1 (single isomer, unassigned) [Example 290]
// smallest pIC50 at index 0, largest at the end Please express your ranking as an ordered list of the labels. Q, R, P

I. C=CC(=O)NCCc1ccccc1C(=O)N[C@H]1CCc2cc(-n3c(-c4cccnc4N)nc4ccc(-n5cccn5)nc43)ccc21
II. NC(=O)/C=C/c1ncccc1C(=O)N[C@H]1CCc2cc(-n3c(-c4cccnc4N)nc4ccc(-n5cccn5)nc43)ccc21
Which shows the larger pIC50 value: I or II ? # answer = label of selected item I
(I: 7.83, II: 7.16)

* * *

target: AKT1 WT (Homo sapiens, UniProt P31749)
Sequence (P31749 whole entry): as the sequence (P31749 whole entry E17K) above, with K17E counted along it
experimental protocol: Live cell AKT1 WT target engagement by NanoBRET competitive probe displacement
details: HEK293 cells transfected with kinase-NanoLuciferase fusion, 2 h at 37° C.
observed property: IC50 (nM)

The cases that follow already have their IC50 on record.
# compound, target, unit tag, IC50
measured = [
    ("C=C(Cl)C(=O)Nc1ccccc1C(=O)N[C@H]1CCc2cc(-n3c(-c4cccnc4N)nc4ccc(-n5cccn5)nc43)ccc21", "AKT1 WT (Homo sapiens, UniProt P31749)", "nM", 204),
    ("C=CC(=O)N1CCC(N[C@H]2CCc3cc(-n4c(-c5cccnc5N)nc5c(C#N)cc(-n6cccn6)nc54)ccc32)CC1", "AKT1 WT (Homo sapiens, UniProt P31749)", "nM", 183),
    ("C=CC(=O)N1CCC(N[C@H]2CCc3cc(-n4c(-c5cccnc5N)nc5ccc(-n6cccn6)nc54)ccc32)C(C#N)C1 (single isomer, unassigned) [Example 155]", "AKT1 WT (Homo sapiens, UniProt P31749)", "nM", 83.6),
    ("C=C(F)C(=O)Nc1cn(C)nc1C(=O)N[C@H]1CCc2cc(-n3c(-c4cccnc4N)nc4ccc(-n5cccn5)nc43)ccc21", "AKT1 WT (Homo sapiens, UniProt P31749)", "nM", 64.5),
    ("C=CC(=O)N1CCC(N[C@H]2CCc3cc(-n4c(-c5ccccc5F)nc5ccc(-n6cccn6)nc54)ccc32)CC1", "AKT1 WT (Homo sapiens, UniProt P31749)", "nM", 205),
    ("C=CC(=O)N1CCC(N[C@H]2CCc3cc(-n4c(-c5cccnc5N)nc5ccc(-n6ccc(Cl)n6)nc54)ccc32)CC1", "AKT1 WT (Homo sapiens, UniProt P31749)", "nM", 127),
    ("C=C(OC)C(=O)Nc1ccccc1C(=O)N[C@H]1CCc2cc(-n3c(-c4cccnc4N)nc4ccc(-n5cccn5)nc43)ccc21", "AKT1 WT (Homo sapiens, UniProt P31749)", "nM", 10.2),
    ("C=CC(=O)N1CCC(N[C@@H]2c3ccc(-n4c(-c5cccnc5N)nc5ccc(-n6ccc(OC)n6)nc54)cc3CC2F)CC1 (single isomer, unassigned) [Example 287]", "AKT1 WT (Homo sapiens, UniProt P31749)", "nM", 227),
    ("C=CC(=O)N1CCC(N[C@H]2CCc3cc(-n4c(-c5cccnc5N)nc5ccc(N6CCC(F)(F)CC6)nc54)ccc32)CC1", "AKT1 WT (Homo sapiens, UniProt P31749)", "nM", 877),
    ("C=CC(=O)N1CCC(N[C@H]2CCc3cc(-n4c(-c5cccnc5N)nc5ccc(-n6cccn6)nc54)ccc32)C[C@@H]1C (single isomer, unassigned) [Example 66]", "AKT1 WT (Homo sapiens, UniProt P31749)", "nM", 12.1),
]

I. C=CC(=O)NCc1ccccc1C(=O)N[C@H]1CCc2cc(-n3c(-c4cccnc4N)nc4ccc(-n5cccn5)nc43)ccc21
II. C=CC(=O)N1CCC(N[C@H]2CCc3cc(-n4c(-c5cccnc5N)nc5cc(-c6ccccn6)cnc54)ccc32)CC1
III. C=CC(=O)N1CCC(N[C@@H]2c3ccc(-n4c(-c5cccnc5N)nc5ccc(-n6cccn6)nc54)cc3CC2F)C(C)C1 (single isomer, unassigned) [Example 290]
IV. C=CC(=O)N1CCCC(N[C@H]2CCc3cc(-n4c(-c5cccnc5N)nc5ccc(-n6cccn6)nc54)ccc32)C1 (single isomer, unassigned) [Example 124]
V. C=CC(=O)NC1CCC(N[C@H]2CCc3cc(-n4c(-c5cccnc5N)nc5ccc(-n6cccn6)nc54)ccc32)CC1 (single isomer, unassigned) [Example 47]
Order field: IC50 | Direction: descending (largest first) Form entry: ranked labels (order as requested). II, III, V, IV, I
(II: 2120 nM, III: 666 nM, V: 200 nM, IV: 54.1 nM, I: 11.5 nM)
